Item-by-item account of Cerebral infarct tissue weight/total brain weight
- System: model rats of middle cerebral artery thrombosis (MCAT)
- EXPERIMENTAL DETAILS: Effects on cerebral infarct area of MCAT rats (TTC staining)
- Type: in vivo, SD rats
- APPLIED CONDITIONS: 200 mg/kg by gavage, 24 hours after operation
Field format: number, assumed %, no unit text.

Example compounds with recorded Cerebral infarct tissue weight/total brain weight:
CCCCC(=O)c1ccccc1C(=O)O [Calcium 2-(α-n-pentanonyl)benzoate, calcium 2-(α-n-pentanonyl)benzoate]	4.65
CCCCC(=O)c1ccccc1C(=O)[O-].[K+] [Potassium 2-(α-n-pentanonyl)benzoate, potassium 2-(α-n-pentanonyl)benzoate]	4.38
CCCCC(O)c1ccccc1C(=O)O (stereo not drawn) [Calcium 2-(α-hydroxypentyl)benzoate]	5.41

Moving on to the next compound.
Q: Please indicate recorded Cerebral infarct tissue weight/total brain weight of CCCCC1OC(=O)c2ccccc21 (racemic) [DL-3-n-butylphthalide] measured with model rats of middle cerebral artery thrombosis (MCAT).
Ans: 5.52
